Would you kindly list log2fc for each of these compounds?
Test system: ACHN cell line
protocol summary: drug screen of the SelleckChem kinase inhibitor library with and without 5 uM SU-329, Cell-Titer Glo after 5 days
Format: cell-based
condition info: kinase inhibitor at 200 nM with and without 5 uM SU329; ACHN cell line; 5 days; Cell-Titer Glo
Give bare numbers.

Recorded results for 3 compounds are shown here.
compound string | log2fc
CC(C)(C)c1cc(/C=C(\C#N)C(N)=S)cc(C(C)(C)C)c1O | 0.3391
CC(=O)Nc1nc(C)c(-c2ccc(Cl)c(S(=O)(=O)NCCO)c2)s1 | 0.3162
O=C(Nc1c[nH]nc1-c1nc2ccc(CN3CCOCC3)cc2[nH]1)NC1CC1 | 2.163

Dear reader, for each entry below, please note its log2fc.
1. CO[C@H]1C[C@@H]2CC[C@@H](C)[C@@](O)(O2)C(=O)C(=O)N2CCCC[C@H]2C(=O)O[C@H]([C@H](C)C[C@@H]2CC[C@@H](OC(=O)C(C)(CO)CO)[C@H](OC)C2)CC(=O)[C@H](C)/C=C(\C)[C@@H](O)[C@@H](OC)C(=O)[C@H](C)C[C@H](C)/C=C/C=C/C=C/1C
2. O=C(NCc1ccccc1)c1csc(Nc2ccncn2)n1
3. NC(=O)c1cccc(-c2cc(Nc3ccc(OC(F)(F)F)cc3)ncn2)c1
4. CCn1c(N)c(C(=O)NC)c(=O)c2ccc(C#C[C@@](C)(O)COC)nc21

[reply]
1. −1.524
2. −0.4963
3. 0.1337
4. 0.374
